Assay: In vitro MTT cytotoxicity assay on MDBK cells
Assay type: cell-based, bovine
Conditions: bovine, MDBK cells (NBL-1 strain)
readout.kind: viability at 24 h, 10 µM
Respond with the figure and its unit, in that order.

Consider the following illustrative entries.
- compound: "COc1cc(C)cc(O)c1"
  viability at 24 h, 10 µM: "106%"
- compound: "C[C@H]1[C@H](C)CC[C@]2(CO)CC[C@]3(C)C(=CC[C@@H]4[C@@]5(C)CC[C@H](O)C(C)(C)[C@@H]5CC[C@]43C)[C@H]12"
  viability at 24 h, 10 µM: "110%"
- compound: "CC[C@@H](C(=O)[C@@H](C)[C@@H](O)[C@H](C)CCc1ccc(C)c(O)c1C(=O)O)[C@H]1O[C@](CC)([C@H]2CC[C@](O)(CC)[C@H](C)O2)C[C@@H]1C [lasalocid, reference compound]"
  viability at 24 h, 10 µM: "54.3%"
- compound: "O=C1C[C@@H](c2ccc(O)cc2)Oc2cc(O)cc(O)c21"
  viability at 24 h, 10 µM: "99.3%"
- compound: "C[C@H]1[C@H](C)CC[C@]2(C(=O)O)CC[C@]3(C)C(=CC[C@@H]4[C@@]5(C)CC[C@H](O)C(C)(C)[C@@H]5CC[C@]43C)[C@H]12"
  viability at 24 h, 10 µM: "105%"
- compound: "CC1(C)CC[C@]2(C)CC[C@]3(C)C(=CC[C@@H]4[C@@]5(C)CC[C@H](O)C(C)(C)[C@@H]5CC[C@]43C)[C@@H]2C1"
  viability at 24 h, 10 µM: "88.6%"

Q. Would you kindly share the measured viability at 24 h, 10 µM for Oc1cc(O)cc(/C=C/c2ccccc2)c1 ?
A. 103%

Q. Lookup Oc1cc(O)c2c(c1)O[C@H](c1ccc(O)c(O)c1)[C@H](O)C2 [Component A-3, Epicatechin]
A. 92.3%

###

# viability at 24 h, 50 µM per record follows
Assay: In vitro MTT cytotoxicity assay on MDBK cells
Type: cell-based, bovine
Conditions: bovine, MDBK cells (NBL-1 strain)
Record the result as number plus unit.

Check out these entries, answers already filled in.
- molecule: "OC[C@H]1O[C@@H](Oc2ccc(O)cc2)[C@H](O)[C@@H](O)[C@@H]1O"
  viability at 24 h, 50 µM: "108%"
- molecule: "C[C@H]1[C@H](C)CC[C@]2(C(=O)O)CC[C@]3(C)C(=CC[C@@H]4[C@@]5(C)CC[C@H](O)C(C)(C)[C@@H]5CC[C@]43C)[C@H]12"
  viability at 24 h, 50 µM: "-13.1%"
- molecule: "COc1cc(C)cc(O)c1"
  viability at 24 h, 50 µM: "113%"
- molecule: "C[C@H]1[C@H](C)CC[C@]2(CO)CC[C@]3(C)C(=CC[C@@H]4[C@@]5(C)CC[C@H](O)C(C)(C)[C@@H]5CC[C@]43C)[C@H]12"
  viability at 24 h, 50 µM: "55.9%"
- molecule: "Oc1cc(O)c2c(c1)O[C@H](c1ccc(O)c(O)c1)[C@H](O)C2 [Component A-3, Epicatechin]"
  viability at 24 h, 50 µM: "109%"

Q. Fill in the blank: the reported viability at 24 h, 50 µM of O=c1c(O[C@@H]2O[C@H](CO)[C@@H](O)[C@H](O)[C@H]2O)c(-c2ccc(O)c(O)c2)oc2cc(O)cc(O)c12 is ____.
A. 109%

Q. Consider next the molecule Cc1cc(O)cc(O)c1 in the same way.
A. 93.4%

Q. Would you kindly repeat that for Oc1cc(O)cc(/C=C/c2ccccc2)c1 ?
A. 110%

Q. Lookup O=C1C[C@@H](c2ccc(O)cc2)Oc2cc(O)cc(O)c21
A. 109%

Q. Another molecule to check: CC1(C)CC[C@]2(C(=O)O)CC[C@]3(C)C(=CC[C@@H]4[C@@]5(C)CC[C@H](O)C(C)(C)[C@@H]5CC[C@]43C)[C@@H]2C1
A. 105%

Q. What do we get for CC[C@@H](C(=O)[C@@H](C)[C@@H](O)[C@H](C)CCc1ccc(C)c(O)c1C(=O)O)[C@H]1O[C@](CC)([C@H]2CC[C@](O)(CC)[C@H](C)O2)C[C@@H]1C [lasalocid, reference compound] ?
A. 1.1%
